# target_system: UniProt:Q5NUL3
# Sequence (Q5NUL3 whole entry): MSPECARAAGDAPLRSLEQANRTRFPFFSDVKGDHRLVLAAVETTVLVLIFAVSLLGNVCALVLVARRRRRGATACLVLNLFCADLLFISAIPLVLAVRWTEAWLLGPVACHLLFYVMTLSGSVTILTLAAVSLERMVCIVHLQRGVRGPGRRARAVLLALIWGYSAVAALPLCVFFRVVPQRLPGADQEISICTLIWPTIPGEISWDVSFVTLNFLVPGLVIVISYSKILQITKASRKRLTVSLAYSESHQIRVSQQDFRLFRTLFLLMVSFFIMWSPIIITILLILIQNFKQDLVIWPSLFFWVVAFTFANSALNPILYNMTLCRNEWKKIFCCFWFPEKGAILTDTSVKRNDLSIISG
# protocol_details: Measurement of Activity of GPR120 Agonist (Cell-Based Assay), Calcium 5 dye fluorescence
# test_parameters: CHO-K1 cells expressing Ga16 and hGPR120
# Method: CHO-K1 cells expressing Ga16 and hGPR120 were dispensed into each well of a 96-well plate (3×10^4 cells/100 μl/well) and then incubated in 5% CO2, 37° C. incubator for 18 hours. […] Each well was treated with 50 μl of the agonist compounds using Plexstation II, and then fluorescence was measured at Ex 485 nm and Em 525 nm. Fluorescence increased by the serially diluted GPR120 agonists is calculated as a relative percent (%) value based on the fluorescence represented by the treatment of 1% DMSO only. […]
endpoint: EC50

Observe how each entry below is paired with its result.
• CC(C)Sc1ncccc1-c1cc(F)c(C(C)CCCC(=O)O)c(F)c1 (stereo not drawn) [Example 50] = < 200 nM
• CC(C)Sc1ncccc1-c1ccc(N2CCC(CC(=O)O)CC2)c(F)c1 [Example 138] = 200 to 2000 nM
• O=C(O)CCCCNc1c(F)cc(-c2cccc(OCC3CC3)n2)cc1F [Example 98] = < 200 nM
• CC(CCCC(=O)O)c1c(F)cc(-c2cccc(OCC3CC3)c2)cc1F (stereo not drawn) [Example 413] = < 200 nM
• CCCOc1nc(-c2cc(F)c(N3CCC(CC(=O)O)CC3)c(F)c2)ncc1F [Example 598] = < 200 nM

Batch of 6 molecules: report EC50 for each.
1. COc1cncc(-c2cc(F)c(N3CCC(CC(=O)O)CC3)c(F)c2)n1 [Example 340]
2. CCCOc1cccc(-c2cc(F)c(OCCCC(=O)O)c(F)c2)c1 [Example 19]
3. Cc1cc(OCC2CC2)nc(-c2cc(F)c(OCCCC(=O)O)c(F)c2)n1 [Example 432]
4. O=C(O)COCCc1c(F)cc(-c2cccnc2SC2CCC2)cc1F [Example 38]
5. Cc1cc(Oc2ccc(F)cc2)nc(-c2cc(F)c(N3CCC(CC(=O)O)CC3)c(F)c2)n1 [Example 515]
6. O=C(O)CC1CCN(c2c(F)cc(-c3cccc(OCC4CC4)n3)cc2F)C1 (stereo not drawn) [Example 560]

Reply:
200 to 2000 nM
< 200 nM
< 200 nM
200 to 2000 nM
200 to 2000 nM
< 200 nM

Batch of 7 molecules: report EC50 for each.
1. O=C(O)CCCCc1c(F)cc(-c2cccnc2OC2CCC2)cc1F [Example 251]
2. Cc1cc(OCC2CC2)nc(-c2cc(F)c(N3CCC(CC(=O)O)C3)c(F)c2)n1 (stereo not drawn) [Example 576]
3. CC(C)Oc1ncccc1-c1cc(F)c(OCc2cc(O)no2)c(F)c1 [Example 69]
4. O=C(O)CC1CCN(c2c(F)cc(-c3nccc(OC4CCC4)n3)cc2F)C1 (stereo not drawn) [Example 579]
5. CC(C)Sc1ncccc1-c1cc(F)c(N2CC[C@@H](CC(=O)O)C2)c(F)c1 [Example 136]
6. O=C(O)CCCOc1c(F)cc(-c2cccc3c2OC2(CCCC2)O3)cc1F [Example 287]
7. CN(CCCC(=O)O)c1c(F)cc(-c2cccc(SC3CCC3)n2)cc1F [Example 202]

Reply:
1: < 200 nM; 2: < 200 nM; 3: < 200 nM; 4: < 200 nM; 5: < 200 nM; 6: < 200 nM; 7: < 200 nM

Value source: patent US11261186B2
